- TEST_TARGET: HCV RdRp (NS5B RNA-dependent RNA polymerase) (Hepatitis C virus genotype 1b, UniProt P26663)
- Construct: The HCV NS5B protein is the viral RdRp; made in house; host or cells: insect cells infected with recombinant baculovirus
- Sequence (P26663 2420-3010): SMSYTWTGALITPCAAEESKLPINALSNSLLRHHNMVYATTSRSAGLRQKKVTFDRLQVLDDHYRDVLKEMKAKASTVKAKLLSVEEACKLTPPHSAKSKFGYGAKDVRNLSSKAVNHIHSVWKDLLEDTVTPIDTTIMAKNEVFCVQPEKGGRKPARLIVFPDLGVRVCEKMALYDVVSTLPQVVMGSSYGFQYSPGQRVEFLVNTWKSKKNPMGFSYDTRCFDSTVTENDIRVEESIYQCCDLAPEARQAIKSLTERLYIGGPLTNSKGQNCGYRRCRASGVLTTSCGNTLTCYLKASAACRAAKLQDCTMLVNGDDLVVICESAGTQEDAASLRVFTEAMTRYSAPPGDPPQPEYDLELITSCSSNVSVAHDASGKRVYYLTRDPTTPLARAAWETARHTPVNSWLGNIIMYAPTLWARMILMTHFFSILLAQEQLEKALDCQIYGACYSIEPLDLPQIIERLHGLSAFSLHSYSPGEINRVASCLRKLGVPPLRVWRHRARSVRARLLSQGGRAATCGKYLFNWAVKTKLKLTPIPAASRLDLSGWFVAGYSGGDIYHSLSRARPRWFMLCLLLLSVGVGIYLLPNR
- EXPERIMENT_SUMMARY: Inhibition of hepatitis C virus RdRp (poly(A)/oligo(U), [3H]UTP incorporation)
- Assay type: biochemical
- RUN_PARAMETERS: Tables I-VIII; 20 nM NS5B, 1 hour at 22° C.; read-out: IC 50 (μM), HCV-polymerase
ASSAY_METRIC: IC50 (µM)
Answer in µM, number only, no unit symbol.

// below: answered compounds
O=C(O)C(O)=CC(=O)c1ccc(Cc2cccc(Cl)c2)s1 [Example 211]: 82
Cc1sc(-c2ccccc2)cc1C(=O)C=C(O)C(=O)O [Example 225]: 167
O=C(O)C(O)=CC(=O)c1cccc(NS(=O)(=O)c2ccc(F)c(Cl)c2)c1 [Example 143]: 0.45
O=C(O)C(O)=CC(=O)c1cccc(NS(=O)(=O)c2ccc3ccccc3c2)c1 [Example 114]: 0.5
O=C(O)C(O)=CC(=O)c1cccn1Cc1cccc(F)c1 [Example 181]: 30

The compound listed as O=C(O)C(O)=CC(=O)c1cccc(NS(=O)(=O)c2cccc([N+](=O)[O-])c2)c1 [Example 142] shows IC50 equal to 0.4

Value of measured IC50 for the entry C#CCCCOc1ccccc1C(=O)C=C(O)C(=O)O [Example 51] : 1.9

Value of IC50 reported for the compound N#Cc1cccc(Cn2ccc(C(=O)C=C(O)C(=O)O)c2)c1 [Example 220] is 4.6

Notebook: Cc1cccc(C(C)Oc2cccc(C(=O)C=C(O)C(=O)O)c2)c1C#N (stereo not drawn) [Example 122] , IC50 read as 2
